# tested_target: apVTR1 (Aplysia californica)
# Sequence (A0ABM1ABB6 1-470): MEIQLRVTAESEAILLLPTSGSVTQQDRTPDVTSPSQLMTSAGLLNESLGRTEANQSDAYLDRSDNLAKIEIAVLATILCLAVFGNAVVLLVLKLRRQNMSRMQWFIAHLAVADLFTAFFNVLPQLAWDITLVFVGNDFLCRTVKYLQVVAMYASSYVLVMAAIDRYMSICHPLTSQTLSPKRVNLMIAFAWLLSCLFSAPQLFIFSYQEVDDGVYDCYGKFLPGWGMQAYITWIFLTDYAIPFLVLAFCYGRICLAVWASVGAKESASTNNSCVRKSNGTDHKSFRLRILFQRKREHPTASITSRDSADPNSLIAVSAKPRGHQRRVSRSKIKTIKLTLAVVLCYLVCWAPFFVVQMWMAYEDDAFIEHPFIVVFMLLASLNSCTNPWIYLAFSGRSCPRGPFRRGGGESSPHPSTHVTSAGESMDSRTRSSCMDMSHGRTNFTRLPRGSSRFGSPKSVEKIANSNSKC
# procedure_details: cell-based
# Type: cell-based
# experimental_context: apVTR1 EC50
Bridge positions count the residues as written; N and C are the ends. Peptide text beside a SMILES is read from it. * marks the point of attachment. Acm = CC(=O)NC*
Quick list: pEC50 per entry.
# pEC50: negative log10 of molar concentration; output just the value

>>> val("CC[C@H](C)[C@@H]1NC(=O)[C@H](Cc2ccccc2)NC(=O)[C@@H](N)CSSC[C@@H](C(=O)N2CCC[C@H]2C(=O)N[C@@H](C)C(=O)NCC(N)=O)NC(=O)[C@H](CC(N)=O)NC(=O)[C@H](CCCNC(=N)N)NC1=O [[Ala^8]apVT] (H-CFIRNCPAG-NH2; disulfide 1-6)")
5.82
>>> val("CC[C@H](C)[C@H](NC(=O)[C@H](Cc1ccccc1)NC(=O)[C@@H](N)CS)C(=O)N[C@@H](CCCNC(=N)N)C(=O)N[C@@H](CC(N)=O)C(=O)N[C@@H](CS)C(=O)N1CCC[C@H]1C(=O)N[C@@H](CCCCN)C(=O)NCC(=O)O [apVT'-OH] (H-CFIRNCPKG-OH; N-terminus assumed)")
5.66

Query: Field: pEC50 (apVTR1 (Aplysia californica)). Entry: CC[C@H](C)[C@H](NC(=O)[C@H](Cc1ccccc1)NC(=O)[C@@H](N)CSCNC(C)=O)C(=O)N[C@@H](CCCNC(=N)N)C(=O)N[C@@H](CC(N)=O)C(=O)N[C@@H](CS)C(=O)N1CCC[C@H]1C(=O)N[C@@H](CCCCN)C(=O)NCC(N)=O [[Cys(Acm)^1]apVT] (H-C(Acm)FIRNCPKG-NH2; N-terminus assumed)
Reply: 5.54

* * *

# System: apVTR2
# procedure_details: IP1 accumulation assay, apVTR2 transiently expressed in CHO-K1 cells
# Format: cell-based, Aplysia californica
Bridge positions count the residues as written; N and C are the ends. Peptide text beside a SMILES is read from it. * marks the point of attachment. Acm = CC(=O)NC*
measurement_label: pEC50
# pEC50: negative log10 of molar concentration; output just the value

>>> val("CC[C@H](C)[C@H](NC(=O)[C@H](Cc1ccccc1)NC(=O)[C@@H](N)CSCNC(C)=O)C(=O)N[C@@H](CCCNC(=N)N)C(=O)N[C@@H](CC(N)=O)C(=O)N[C@@H](CS)C(=O)N1CCC[C@H]1C(=O)N[C@@H](CCCCN)C(=O)NCC(N)=O [[Cys(Acm)^1]apVT] (H-C(Acm)FIRNCPKG-NH2; N-terminus assumed)")
5.11

Query: pEC50 for CC[C@H](C)[C@@H]1NC(=O)[C@H](Cc2ccccc2)NC(=O)[C@@H](N)CSSC[C@@H](C(=O)N2CCC[C@H]2C(=O)N[C@@H](CCCCN)C(=O)NCC(=O)O)NC(=O)[C@H](CC(N)=O)NC(=O)[C@H](CCCNC(=N)N)NC1=O [apVT-OH] (H-CFIRNCPKG-OH; disulfide 1-6; N-terminus assumed) ?
Reply: 6.00

* * *

# Test system: apVTR2
# procedure_details: IP1 accumulation assay, apVTR2 transiently expressed in CHO-K1 cells
# Format: cell-based, Aplysia californica
Peptide text beside a SMILES is read from it. * marks the point of attachment. Acm = CC(=O)NC*
measurement_label: pEC50
# pEC50: negative log10 of molar concentration; output just the value

Query: pEC50 for CC[C@H](C)[C@H](NC(=O)[C@H](Cc1ccccc1)NC(=O)[C@@H](N)CSCNC(C)=O)C(=O)N[C@@H](CCCNC(=N)N)C(=O)N[C@@H](CC(N)=O)C(=O)N[C@@H](CSCNC(C)=O)C(=O)N1CCC[C@H]1C(=O)N[C@@H](CCCCN)C(=O)NCC(N)=O [[Cys(Acm)^1,6]apVT] (H-C(Acm)FIRNC(Acm)PKG-NH2; N-terminus and C-terminus assumed) ?
Reply: 4.33

Query: Same question for CC[C@H](C)[C@H](NC(=O)[C@H](Cc1ccccc1)NC(=O)[C@@H](N)CS)C(=O)N[C@@H](CCCNC(=N)N)C(=O)N[C@@H](CC(N)=O)C(=O)N[C@@H](CSCNC(C)=O)C(=O)N1CCC[C@H]1C(=O)N[C@@H](CCCCN)C(=O)NCC(N)=O [[Cys(Acm)^6]apVT] (H-CFIRNC(Acm)PKG-NH2; N-terminus assumed) please.
Reply: 5.11

Query: Same question for CC[C@H](C)[C@H](NC(=O)[C@H](Cc1ccccc1)NC(=O)[C@@H](N)CS)C(=O)N[C@@H](CCCNC(=N)N)C(=O)N[C@@H](CC(N)=O)C(=O)N[C@@H](CS)C(=O)N1CCC[C@H]1C(=O)N[C@@H](CCCCN)C(=O)NCC(=O)O [apVT'-OH] (H-CFIRNCPKG-OH; N-terminus assumed) please.
Reply: 5.66
